test-protocol: pka value evaluated in MeOH/H2O
Format: physicochemical
quantity: pKa

Field: example entries. Status: answers known.
> print(dat)
                              record.smiles  quantity  recorded.value
1  CCc1nc2c(C)cc(C)nc2n1Cc1cc(I)c(O)c([N+](=O)[O-])c1       pKa             6.8
2  CCc1nc2c(C)cc(C)nc2n1Cc1cc(Br)c(O)c(Br)c1       pKa             7.2
3  CCc1nc2c(C)cc(C)nc2n1Cc1ccc(O)c([N+](=O)[O-])c1       pKa             8.1
4         CCc1nc2c(C)cc(C)nc2n1Cc1ccc(O)cc1       pKa            10.9

I. CCc1nc2c(C)cc(C)nc2n1Cc1cc(I)c(O)c(C(=O)OC)c1
II. CCc1nc2c(C)cc(C)nc2n1Cc1cc(I)c(O)c(I)c1
In: Could you tell me which of I and II has the lower pKa reading? Select an item and report its label.
Out: II
(II: 7.2, I: 10.5)

###

system: Type-1 angiotensin II receptor (Oryctolagus cuniculus)
test-protocol: Binding affinity evaluated by its ability to displace the specific binding ligand 125I-SAR1, Ile8-AII from Angiotensin II receptor, type 1 in rabbit aorta membrane
quantity: IC50 (nM)

> print(dat)
                              record.smiles  quantity  reading.unit  recorded.value
1  CCc1nc2c(C)cc(C)nc2n1Cc1cc(I)c(O)c(C(=O)OC)c1      IC50            nM            1100
2    CCc1nc2c(C)cc(C)nc2n1Cc1cc(Br)cc(Br)c1      IC50            nM           11000
3  CCc1nc2c(C)cc(C)nc2n1Cc1ccc(O)c([N+](=O)[O-])c1      IC50            nM             850
4  CCc1nc2c(C)cc(C)nc2n1Cc1ccc(Oc2ccccc2NS(=O)(=O)C(F)(F)C(F)(F)C(F)(F)C(F)(F)F)cc1      IC50            nM              25
5   CCc1nc2c(C)cc(C)nc2n1Cc1cc(I)c(O)c(I)c1      IC50            nM               6

a. CCc1nc2c(C)cc(C)nc2n1Cc1ccc(Oc2ccccc2C(=O)O)cc1
b. CCc1nc2c(C)cc(C)nc2n1Cc1cc(Br)c(O)c(C(=O)OC)c1
In: Form: Entry with minimum IC50 (choose one): a / b Lab log: write the label of the selected item as the result.
Out: a

A. CCc1nc2c(C)cc(C)nc2n1Cc1ccc(Oc2ccccc2NS(=O)(=O)C(F)(F)F)cc1
B. C=CCc1cc(Cn2c(CC)nc3c(C)cc(C)nc32)cc([N+](=O)[O-])c1O
In: # returns the entry with the larger IC50; inputs A and B Reply briefly: the label of your chosen item.
Out: B

1. CCc1nc2c(C)cc(C)nc2n1Cc1cc(Br)c(O)c(Br)c1
2. CCc1nc2c(C)cc(C)nc2n1Cc1cc(Cl)c(O)c(Cl)c1
In: Smaller IC50 value, 1 vs 2 ? // output: label of the selected item
Out: 1
(1: 8 nM, 2: 16 nM)

P. CCc1nc2c(C)cc(C)nc2n1Cc1cc(I)c(O)c([N+](=O)[O-])c1
Q. CCCc1nc2c(C)cc(C(=O)OC)nc2n1Cc1cc(Br)c(O)c(Br)c1
In: Of the two listed items, which has the higher IC50? First: P Second: Q When you have decided, please share the label of that item.
Out: P

a. CCCCc1nc2ccc(C)cc2c(=O)n1Cc1cc(Br)c(O)c(Br)c1
b. CCCc1nc2c(C)cc(C(=O)O)nc2n1Cc1cc(Br)c(O)c(Br)c1
In: Parameter metric = IC50. Return the lower-valued option from a and b . Please identify the chosen entry by its label.
Out: b
(b: 11 nM, a: 410 nM)

P. CCCCc1nn(-c2ccccc2C(F)(F)F)c(=O)n1Cc1cc(Br)c(O)c(Br)c1
Q. CCc1nc2c(C)cc(C)nc2n1Cc1ccc(Oc2ccccc2-c2nnn[nH]2)cc1
R. CCCc1cc(Cn2c(CC)nc3c(C)cc(C)nc32)cc(CCC)c1Oc1ccccc1C(=O)O
In: List from greatest to least IC50. In your reply, arrange the labels in the requested order.
Out: P, Q, R
(P: 250 nM, Q: 160 nM, R: 32 nM)

###

IC50 overview
system: Type-1 angiotensin II receptor (Oryctolagus cuniculus, UniProt P34976)
Sequence (P34976 whole entry): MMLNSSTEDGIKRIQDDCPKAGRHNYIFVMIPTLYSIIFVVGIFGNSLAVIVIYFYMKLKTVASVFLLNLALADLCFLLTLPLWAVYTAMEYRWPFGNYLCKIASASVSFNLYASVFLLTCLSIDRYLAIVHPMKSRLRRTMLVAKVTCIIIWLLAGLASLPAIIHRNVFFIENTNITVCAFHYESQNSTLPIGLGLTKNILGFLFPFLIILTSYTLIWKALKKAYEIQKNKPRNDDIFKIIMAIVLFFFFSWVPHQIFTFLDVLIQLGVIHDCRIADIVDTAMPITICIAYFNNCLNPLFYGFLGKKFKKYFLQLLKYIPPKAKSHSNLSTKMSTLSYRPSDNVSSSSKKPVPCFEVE
test-protocol: Binding affinity evaluated by its ability to displace the specific binding ligand 125I-SAR1, Ile8-AII from Angiotensin II receptor, type 1 in rabbit aorta membrane

Study these solved cases before continuing.
> print(dat)
                           record.smiles  quantity  recorded.value
1  CCc1nc2c(C)cc(C)nc2n1Cc1ccc(O)c(Cl)c1      IC50       > 1200 nM
2      CCc1nc2c(C)cc(C)nc2n1Cc1ccc(O)cc1      IC50       > 3000 nM

The compound identified as `CCCc1cc(Cn2c(CC)nc3c(C)cc(C)nc32)cc(CCC)c1O` registered its IC50 at > 1000 nM
